Below is a list of entries, each paired with its recorded cell growth value.
tested on: OVCAR-3-derived ovarian cancer stem-like cells (spheroids); assay: cell growth relative to untreated control; higher = more growth (less inhibition); details: 2.29 µM; 96 h
Supply the numeric figure in %, leaving out any unit text.

Consider the reported cell growth for these compounds:
compound	displayUnit	cell growth
COC(=O)c1ccc(NCc2cc(O)ccc2O)cc1	%	108
COC1=C(N)C(=O)c2nc(C)ccc2C1=O	%	125
COc1cc2c3c(n(C)c(=O)c2cc1OC)-c1cc2c(cc1C3=O)OCO2	%	101
C=C(C)[C@@H]1CC[C@]2(C)CC[C@]3(C)[C@H](CC[C@@H]4[C@@]5(C)CC[C@H](O)C(C)(C)[C@@H]5CC[C@]43C)[C@@H]12	%	121
COc1ccc(S(=O)(=O)N/N=C/C(=O)O)cc1	%	117
COc1ccc2[nH]c3c(C)c4ccncc4c(C)c3c2c1	%	65.8
CC[C@@]1(O)C[C@H](O[C@H]2C[C@H](N(C)C)[C@H](O[C@H]3C[C@H](O)[C@H](O[C@H]4C[C@H](O)[C@H](O)[C@H](C)O4)[C@H](C)O3)[C@H](C)O2)c2c(cc3c(c2O)C(=O)c2c(O)ccc(O)c2C3=O)[C@H]1C(=O)OC	%	78.9
CCOc1cccc(/C=N/N=C2\C(=O)Nc3c(Cl)cc(Cl)cc32)c1O	%	85.4

Could you share which cell growth value was measured for Cc1ccc2[c](c1)[Sn]([c]1ccccc1)([c]1ccccc1)[c]1cc(C)ccc1N2C ? 87.8

Tell me the measured cell growth of O=NN(CCCl)C(=O)NCc1ccc[n+]([O-])c1 , please. 76.9

Fill in: cell growth of O=C(c1ccccc1)C1OC12C(=O)Nc1c(Cl)cc(Cl)cc12 (configuration not stated) is ___ 94.6

Recorded cell growth of CN(C)c1cccc(F)c1C(=O)NC(=O)Nc1ccc(Cl)cc1 , please. 102

What value of cell growth has been recorded for this entry: COc1ccc(Cc2nc3ccccc3s2)cc1OC 98.9
